Measured hemolysis at 0.5 h, 8 ug/ml values are reported for all entries that follow.
# assay-protocol: Hemolytic activity against human RBC at 8 ug/ml incubated for 30 mins (reference value: 0%)
# Format: toxicity, cell-based, Erythrocyte
# experimental-context: human red blood cells (erythrocytes), at 8 µg/mL, read-out: Activity
Response body: numeric value in %, unit text excluded.

Would you please look over these solved cases?
{"smiles-record": "CCCCCCCCN(CCCCCCCCNC(=N)NCC1CC1)C(=O)N(CCCCCCNC(=N)NCC1CC1)CCCCCCNC(=N)NCC1CC1", "unit-name": "%", "obs-value": 1.2}
{"smiles-record": "N=C(NCCCCCCCCNC(N)=O)NCC1CC1.O=C(O)C(F)(F)F", "unit-name": "%", "obs-value": 0}
{"smiles-record": "N=C(N)NCCCCCCCCN(CCCCCCCCNC(=N)NCC1CC1)C(=O)N(CCCCCCCCNC(=N)N)CCCCCCCCNC(=N)NCC1CC1", "unit-name": "%", "obs-value": 0.8}
{"smiles-record": "N=C(N)NCCCCCCCCN(CCCCCCCCN)C(=O)N(CCCCCCCCN)CCCCCCCCNC(=N)N.O=C(O)C(F)(F)F", "unit-name": "%", "obs-value": 0}

# lookup: hemolysis at 0.5 h, 8 ug/ml of N=C(N)NCCCCCCCCN(CCCCCCCCNC(=N)NCC1CC1)C(=O)N(CCCCCCCCNC(=N)NCC1CC1)CCCCCCCCNC(=N)NCC1CC1.O=C(O)C(F)(F)F
0
